- assay_target: T1, human TLR4/MD2 complex expressed on the cell surface (human, UniProt O00206 24-839; Q9Y6Y9 19-160)
- T1 construct: also called CHO TLR4/MD2 transfectants
- T1 sequence (O00206 24-839 limits assumed, chain 1 of 2): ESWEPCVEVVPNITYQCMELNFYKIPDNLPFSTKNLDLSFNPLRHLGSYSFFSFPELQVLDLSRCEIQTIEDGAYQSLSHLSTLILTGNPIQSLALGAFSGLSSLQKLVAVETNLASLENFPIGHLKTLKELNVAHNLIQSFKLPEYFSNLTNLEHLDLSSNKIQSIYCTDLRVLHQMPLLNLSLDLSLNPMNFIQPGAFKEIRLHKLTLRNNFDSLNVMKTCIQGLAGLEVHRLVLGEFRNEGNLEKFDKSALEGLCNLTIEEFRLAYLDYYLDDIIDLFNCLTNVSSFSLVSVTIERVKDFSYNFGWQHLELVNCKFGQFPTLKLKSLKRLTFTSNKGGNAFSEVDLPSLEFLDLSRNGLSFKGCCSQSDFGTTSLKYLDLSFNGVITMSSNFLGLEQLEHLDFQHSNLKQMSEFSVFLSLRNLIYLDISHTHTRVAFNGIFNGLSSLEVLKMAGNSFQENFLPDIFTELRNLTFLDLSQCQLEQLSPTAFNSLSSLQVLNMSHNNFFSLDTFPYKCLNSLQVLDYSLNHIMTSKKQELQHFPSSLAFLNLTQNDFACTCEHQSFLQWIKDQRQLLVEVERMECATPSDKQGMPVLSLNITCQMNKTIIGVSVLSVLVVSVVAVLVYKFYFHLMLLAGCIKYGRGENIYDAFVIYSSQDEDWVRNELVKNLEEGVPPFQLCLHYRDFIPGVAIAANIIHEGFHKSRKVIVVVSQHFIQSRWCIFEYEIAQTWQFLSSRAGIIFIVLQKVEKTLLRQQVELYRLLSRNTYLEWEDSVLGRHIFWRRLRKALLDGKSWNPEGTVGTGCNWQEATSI
- T1 sequence (Q9Y6Y9 19-160 R56G limits assumed, chain 2 of 2): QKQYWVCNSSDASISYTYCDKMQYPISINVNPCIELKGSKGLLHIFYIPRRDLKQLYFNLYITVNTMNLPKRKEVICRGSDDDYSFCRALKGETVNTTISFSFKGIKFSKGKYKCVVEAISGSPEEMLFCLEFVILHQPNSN
- assay: FACS on CHO stable cell line expressing human TLR4-MD2 complex
endpoint_label: binding result

INSERT INTO results (binder, value_measured) VALUES
  ('chimeric IgG1 15C1 (antibody, V domains shown, also called chimeric 15C1; 15C1 on a human IgG1 backbone) VH: DVQLQESGPDLIQPSQSLSLTCTVTGYSITGGYSWHWIRQFPGNKLEWMGYIHYSGYTDFNPSLKTRISITRDTSKNQFFLQLNSVTTEDTATYYCARKDPSDGFPYWGQGTLVTVSA VL: DIVMTQSPATLSVTPGDRVSLSCRASQSISDHLHWYQQKSHESPRLLIKYASHAISGIPSRFSGSGSGTDFTLSIKSVEPEDIGVYYCQNGHSFPLTFGAGTKLELK', 'binds'),
  ('D mu 262-295 CH2 chimeric IgG1 15C1 (antibody, V domains shown, copies: 2 + 2) VH: DVQLQESGPDLIQPSQSLSLTCTVTGYSITGGYSWHWIRQFPGNKLEWMGYIHYSGYTDFNPSLKTRISITRDTSKNQFFLQLNSVTTEDTATYYCARKDPSDGFPYWGQGTLVTVSA VL: DIVMTQSPATLSVTPGDRVSLSCRASQSISDHLHWYQQKSHESPRLLIKYASHAISGIPSRFSGSGSGTDFTLSIKSVEPEDIGVYYCQNGHSFPLTFGAGTKLELK', 'binds');
